Recorded values, source paper PMC7808142.

Test: Pharmacokinetics in rats after intravenous and oral administration
Assay type: in vivo, Sprague-Dawley rats
Settings: male, Sprague-Dawley, rat, plasma, po, 100 mg/kg, Tmax, p.o. 100 mg/kg, n = 3
observation_type: Tmax (min)
Express your answer in min, writing the number without its unit.

input: Which value of Tmax has been reported for C[C@@H]1CC[C@H]2[C@@H](C)C(=O)O[C@@H]3O[C@@]4(C)CC[C@@H]1[C@]32OO4 in the records?
output: 79.8

###

Test: Pharmacokinetics in rats after intravenous and oral administration
Assay type: in vivo, Sprague-Dawley rats
Details: male, Sprague-Dawley, rat, plasma, iv, 5 mg/kg
Reported AUC(0-inf) by item:
Express your answer in ng·h/mL, writing the number without its unit.

> print(dat)
                                 smiles.str  observation.type  observed.result
1  C[C@@H]1CC[C@H]2[C@@H](C)C(=O)O[C@@H]3O[C@@]4(C)CC[C@@H]1[C@]32O4        AUC(0-inf)              222

Below: the item to evaluate.
input: Which value of AUC(0-inf) has been reported for C[C@@H]1CC[C@H]2[C@@H](C)C(=O)O[C@@H]3O[C@@]4(C)CC[C@@H]1[C@]32OO4 in the records?
output: 130

###

Assay: Pharmacokinetics in rats after intravenous and oral administration
Assay type: in vivo, Sprague-Dawley rats
Details: male, Sprague-Dawley, rat, plasma, iv, 5 mg/kg, t1/2, rat, i.v. 5 mg/kg, n = 3
observation_type: half-life (min)
Express your answer in min, writing the number without its unit.

> print(dat)
                                 smiles.str  observed.result
1  C[C@@H]1CC[C@H]2[C@@H](C)C(=O)O[C@@H]3O[C@@]4(C)CC[C@@H]1[C@]32O4             67.2

input: Which value of half-life has been reported for C[C@@H]1CC[C@H]2[C@@H](C)C(=O)O[C@@H]3O[C@@]4(C)CC[C@@H]1[C@]32OO4 in the records?
output: 46.2

###

Test: Pharmacokinetics in rats after intravenous and oral administration
Assay type: in vivo, Sprague-Dawley rats
Conditions: male, Sprague-Dawley, rat, plasma, po, 100 mg/kg
observation_type: bioavailability (%)
Express your answer in %, writing the number without its unit.

> print(dat)
                                 smiles.str  unit.descriptor  observed.result
1  C[C@@H]1CC[C@H]2[C@@H](C)C(=O)O[C@@H]3O[C@@]4(C)CC[C@@H]1[C@]32O4                %              1.6

Below: the item to evaluate.
input: Which value of bioavailability has been reported for C[C@@H]1CC[C@H]2[C@@H](C)C(=O)O[C@@H]3O[C@@]4(C)CC[C@@H]1[C@]32OO4 in the records?
output: 12.2

###

Experiment: Pharmacokinetics in rats after intravenous and oral administration
Assay type: in vivo, Sprague-Dawley rats
Settings: male, Sprague-Dawley, rat, plasma, po, 100 mg/kg
Reported AUC(0-t) by item:
Express your answer in ng·h/mL, writing the number without its unit.

> print(dat)
                                   compound  unit.descriptor  observed.result
1  C[C@@H]1CC[C@H]2[C@@H](C)C(=O)O[C@@H]3O[C@@]4(C)CC[C@@H]1[C@]32O4 [deoxyartemisinin, Deoxyartemisinin]          ng·h/mL             67.3

Below: the item to evaluate.
input: Which value of AUC(0-t) has been reported for C[C@@H]1CC[C@H]2[C@@H](C)C(=O)O[C@@H]3O[C@@]4(C)CC[C@@H]1[C@]32OO4 [artemisinin, Artemisinin] in the records?
output: 309
